Record form. Attribute: sensor-assay potency score (higher = more potent). Fill in for each entry.
- ASSAYED_SYSTEM: PPP1R3A
- EXPERIMENT: pooled miR-30 sensor sort-seq; sequence = guide strand; also: reference of the scale not given here
- TEST_PARAMETERS: shRNA
Answer using only a numeral; do not append any unit.

Need sensor-assay potency score (higher = more potent), item TTGTTTTTCATTAACACCTAAA
-0.918

Field request: sensor-assay potency score (higher = more potent) | item: TTGGTGAATGAGACACATCTGC
-0.3

So what does the record say about sensor-assay potency score (higher = more potent) for TTGAATTACAAATATTTTCTGA ?
-0.0203

Recorded sensor-assay potency score (higher = more potent) of TTTGTTTTTCATTAACACCTAA , please.
-0.646

Please look up its sensor-assay potency score (higher = more potent): TTGAACAATGAATAGTCCCATT
-1.02

Please report the recorded sensor-assay potency score (higher = more potent) for TATAGGTATTTAATGATCCAAA .
-1.48

====

Exercise: state measured sensor-assay potency score (higher = more potent) for each of the sequences provided.
- ASSAYED_SYSTEM: TBPL2
- EXPERIMENT: pooled miR-30 sensor sort-seq; sequence = guide strand
- TEST_PARAMETERS: shRNA
Write no unit; give the number alone.

Please look up its sensor-assay potency score (higher = more potent): TCTTGCTGCAAGTCGAGACTGC
0.000545

Report sensor-assay potency score (higher = more potent) for TACAACTGGGCTGAACAGGGGA please.
0.181

Which sensor-assay potency score (higher = more potent) is reported for this sequence? TTCCTGGGTAACTTCATCTGGT
-0.0709

Form field: reported sensor-assay potency score (higher = more potent) of ATAAGCAACACAATTCGTGGTT
0.695

Query: sensor-assay potency score (higher = more potent); subject: TACAGTGGAAACTATATTCTGT
0.659

Query: sensor-assay potency score (higher = more potent); subject: TACAATTCCACAACATTCTGAA
0.364

Look up sensor-assay potency score (higher = more potent): TTTTAGAATAGGATAGATGTTT
-0.912

Name the reported sensor-assay potency score (higher = more potent) value associated with the sequence TATGACAGCAGCAAACCTCTTT
-0.118

====

Assignment: determine reported sensor-assay potency score (higher = more potent) for the given sequences.
- ASSAYED_SYSTEM: C9orf30
- EXPERIMENT: pooled miR-30 sensor sort-seq; sequence = guide strand
- TEST_PARAMETERS: shRNA
When you answer, write just the number.

Name the recorded sensor-assay potency score (higher = more potent) for AGAACTTCCATTTTTATCCTGT .
-0.0866

Any idea what sensor-assay potency score (higher = more potent) was measured for ATCACTTTTCTTACATTCCAGC ?
-1.2

Entry TATTCTGACAGCTGAACACGAG : reported sensor-assay potency score (higher = more potent) = ?
-0.517

Could you tell me which sensor-assay potency score (higher = more potent) is on file for TTATCCTGTGTTCCTCCTCTGC ?
-1.19

Can you look up the measured sensor-assay potency score (higher = more potent) of TTCAGAAGACTATAACAGCTTC for me?
-0.358

Can you look up the measured sensor-assay potency score (higher = more potent) of TTAAATGAGGAAACAGGCCATT for me?
-1.27

Which sensor-assay potency score (higher = more potent) is listed for TTTATTGAGAACTTCCATTTTT ?
-0.999

====

- ASSAYED_SYSTEM: C16orf55
- EXPERIMENT: pooled miR-30 sensor sort-seq; sequence = guide strand
- TEST_PARAMETERS: shRNA
Assignment: determine reported sensor-assay potency score (higher = more potent) for the given sequences.

I have this sequence here, TTACATCAGGTTTCTCTTCCAG , and I need its recorded sensor-assay potency score (higher = more potent).
0.199

What value of sensor-assay potency score (higher = more potent) has been recorded for this entry: TTATAGGCGTCTGCTGTACTGG
-0.778

State the recorded sensor-assay potency score (higher = more potent) for this entry: TTTTGGAACTGAATAGGTGGAT
-0.336

Can you look up the measured sensor-assay potency score (higher = more potent) of TTTGGAACTGAATAGGTGGATC for me?
-0.304

Reported sensor-assay potency score (higher = more potent), sequence TTCTCCATCAACTTCTCCTTAG : ____
-0.561

Fill in: sensor-assay potency score (higher = more potent) of TGGACTTTTGCTTTACATCAGG is ___
-1.63

So what's the measured sensor-assay potency score (higher = more potent) for this one? TAGGCGTCTGCTGTACTGGGGT
0.489

Can you look up the measured sensor-assay potency score (higher = more potent) of TAGATTTTGGAACTGAATAGGT for me?
-0.346

Can you look up the measured sensor-assay potency score (higher = more potent) of TTCTCTGCTGGTCACTCCCGCT for me?
-1.51

Which sensor-assay potency score (higher = more potent) value belongs to TTCCTGGGAATGCTTCTCCATC ?
-1.49

====

- ASSAYED_SYSTEM: HIST1H2BM
- EXPERIMENT: pooled miR-30 sensor sort-seq; sequence = guide strand
- TEST_PARAMETERS: shRNA
PROPERTY_LABEL: sensor-assay potency score (higher = more potent)
Please state the value as a number alone, without comment.

Need sensor-assay potency score (higher = more potent), item TTCCATCCTTCTTCTGAGCCTT
-0.589

Need sensor-assay potency score (higher = more potent), item TAGCAGTAGGCGCACGGCCGTC
-1.42

// query sensor-assay potency score (higher = more potent) value for entry TTCTTTCCATCCTTCTTCTGAG
-0.665

Return reported sensor-assay potency score (higher = more potent); argument: ATACACAGAGTAGCTCTCCTTG
-0.936

So what does the record say about sensor-assay potency score (higher = more potent) for TTAATGGCCTTCTTGGAGCCTT ?
-0.535

Return reported sensor-assay potency score (higher = more potent); argument: TACACATACACAGAGTAGCTCT
-0.419

Please report the recorded sensor-assay potency score (higher = more potent) for TTTGCGCTTCTTTCCATCCTTC .
-0.136

Consider the sequence TAGCCTTGGAAGAGATGCCGGT and give its measured sensor-assay potency score (higher = more potent).
-0.26

====

- ASSAYED_SYSTEM: DNAJB11
- EXPERIMENT: pooled miR-30 sensor sort-seq; sequence = guide strand
- TEST_PARAMETERS: shRNA
PROPERTY_LABEL: sensor-assay potency score (higher = more potent)
# print the numeric value only

Could you share which sensor-assay potency score (higher = more potent) value was measured for TATTTCTGTCTTGCTGACGAGG ?
-1.05

Request the reported sensor-assay potency score (higher = more potent) associated with TCTATTTCTACTTCCAGCGTTC
-0.287

If you can, please state the reported sensor-assay potency score (higher = more potent) value of TATACCTTCTGCACTGACCCTT .
0.681

# query: sensor-assay potency score (higher = more potent) of entry TCTTCCATAGCTTCGCTCCTGG
-0.0366

For TCTTATAGAAATCTCGTCCGGC , what is its reported sensor-assay potency score (higher = more potent)?
0.334

Would you mind telling me what sensor-assay potency score (higher = more potent) value was observed for TTTGTGTACAAATCATCTCCTC ?
-0.115

# lookup: sensor-assay potency score (higher = more potent) of TTCACCATAAGTATCGTACTGT
0.409

Form field: reported sensor-assay potency score (higher = more potent) of TTTGTTTCTAACTACTTCCACA
-0.721

====

- ASSAYED_SYSTEM: MOCS3
- EXPERIMENT: pooled miR-30 sensor sort-seq; sequence = guide strand
- TEST_PARAMETERS: shRNA
For each entry below, report its sensor-assay potency score (higher = more potent) value.
Just the number, please.

Request - read-out sensor-assay potency score (higher = more potent) | tested on MOCS3 | sequence TTAAAGGGTCTAACTCTTGAGC
-0.607

# returns recorded sensor-assay potency score (higher = more potent) (system: MOCS3) for TAGTCGGTGACAGAAACACGCT
-0.908

Reported sensor-assay potency score (higher = more potent) for MOCS3, given TATTATGGCAATCCACATCTTT ?
-0.453

Under MOCS3: sensor-assay potency score (higher = more potent) value of TCAAAGAGCAACAAGCTGCCAC ?
-0.221

Which sensor-assay potency score (higher = more potent) is reported with MOCS3 for this entry: TAGCGCAGAATCTCATCTCGGG ?
-0.0421

====

- ASSAYED_SYSTEM: IGFBP3
- EXPERIMENT: pooled miR-30 sensor sort-seq; sequence = guide strand
- TEST_PARAMETERS: shRNA
Record form. Attribute: sensor-assay potency score (higher = more potent). Fill in for each entry.
Quick one: just the number, no unit, thanks!

Identify the measured sensor-assay potency score (higher = more potent) of TCGTAGTCAACTTTGTAGCGCT for IGFBP3.
-0.259

Kindly state the measured sensor-assay potency score (higher = more potent) obtained for TATCTTTGAATGGAGGGGGTGG with IGFBP3.
-0.842

Query for IGFBP3: what sensor-assay potency score (higher = more potent) does the record show for TTTCTTATAAAATCCCTTCTTG ?
-0.488

For IGFBP3, provide sensor-assay potency score (higher = more potent) of ATCTGTGCTCTGAGACTCGTAG please.
-0.551

Fill in the recorded sensor-assay potency score (higher = more potent) for this sequence, with IGFBP3 as test system: TACTTATCCACACACCAGCAGA
-1.2

What measured sensor-assay potency score (higher = more potent) is associated with TAGCATTTCCTGGAGCTGGCGG on IGFBP3?
-0.626

What reported sensor-assay potency score (higher = more potent) corresponds to TTTCTTGATGATGATTATCTTT on IGFBP3?
-1

Any idea what sensor-assay potency score (higher = more potent) came out for TTGATGATGATTATCTTTGAAT on IGFBP3?
-0.974

IGFBP3 / sensor-assay potency score (higher = more potent) / TAGTCAACTTTGTAGCGCTGGC : value?
-0.23

GET /values?readout=sensor-assay potency score (higher = more potent)&system=IGFBP3&item= TTTAGCATGCCCTTTCTTGATG
-1.17

Return sensor-assay potency score (higher = more potent) measured with IGFBP3 given this sequence: TATCTGTGCTCTGAGACTCGTA
-0.405
